Target desc: Sodium-dependent serotonin transporter (Homo sapiens, UniProt P31645)
Sequence (P31645 whole entry): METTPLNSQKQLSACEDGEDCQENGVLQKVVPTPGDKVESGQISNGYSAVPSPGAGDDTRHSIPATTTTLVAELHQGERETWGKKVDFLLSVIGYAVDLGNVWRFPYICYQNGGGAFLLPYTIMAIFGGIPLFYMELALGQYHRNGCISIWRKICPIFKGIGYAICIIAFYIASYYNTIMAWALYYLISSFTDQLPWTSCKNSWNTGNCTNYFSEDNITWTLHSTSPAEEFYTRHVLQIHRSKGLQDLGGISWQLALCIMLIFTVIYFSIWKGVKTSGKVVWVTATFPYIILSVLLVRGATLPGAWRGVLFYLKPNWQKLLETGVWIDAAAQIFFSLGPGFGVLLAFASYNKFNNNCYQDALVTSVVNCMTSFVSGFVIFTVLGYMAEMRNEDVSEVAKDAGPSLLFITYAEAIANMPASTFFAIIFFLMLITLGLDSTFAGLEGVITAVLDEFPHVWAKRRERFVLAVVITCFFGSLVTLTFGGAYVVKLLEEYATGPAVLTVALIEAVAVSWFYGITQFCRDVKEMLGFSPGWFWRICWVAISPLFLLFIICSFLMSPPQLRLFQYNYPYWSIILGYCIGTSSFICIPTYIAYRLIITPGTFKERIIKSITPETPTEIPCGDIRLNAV
Protocol: Displacement of [3H]citalopram from human SERT expressed in HEK293 cell membrane
Quantity kind: IC50

Reference set, count: 2
Brc1ccc(C2=C(c3cc(-c4ccccc4)no3)C3CCC(C2)S3)cc1 (stereo not given) | > 10 µM
c1ccc(C2=C(c3cc(-c4ccccc4)no3)C3CCC(C2)S3)cc1 (stereo not given) | > 10 µM

Could you tell me which IC50 is on file for Cc1cc([C@@H]2C3CCC(C[C@H]2c2ccccc2)S3)on1 (stereo not given in full) ?
> 10 µM

Another: Clc1ccc(C2=C(c3cc(-c4ccccc4)no3)C3CCC(C2)S3)cc1Cl (stereo not given)
> 10 µM

Another: Cc1cc(C2=C(c3ccc(Cl)c(Cl)c3)CC3CCC2S3)on1 (stereo not given)
> 10 µM

Another: Cc1cc([C@@H]2C3CCC(C[C@@H]2c2ccc(Cl)cc2)S3)on1 (stereo not given in full)
> 1 µM

Another: Cc1cc([C@@H]2C3CCC(C[C@@H]2c2ccc(Cl)c(Cl)c2)S3)on1 (stereo not given in full)
0.766 µM

Another: Clc1ccc(C2=C(c3cc(-c4ccccc4)no3)C3CCC(C2)S3)cc1 (stereo not given)
> 10 µM

Another: c1ccc(-c2cc(C3C4CCC(C[C@@H]3c3ccccc3)S4)on2)cc1 (stereo not given in full)
> 10 µM

Another: Cc1cc(C2=C(c3ccc(Cl)cc3)CC3CCC2S3)on1 (stereo not given)
> 10 µM

---

The compounds below have reported IC50 for Sodium-dependent dopamine transporter (Homo sapiens).
Mention the unit after the number when you answer.

Reference set, count: 4
Cc1cc([C@@H]2C3CCC(C[C@H]2c2ccc(F)cc2)S3)on1 (stereo partly specified) | 22 nM
Clc1ccc([C@@H]2CC3CCC(S3)C2c2cc(-c3ccccc3)no2)cc1 (stereo partly specified) | 130 nM
Fc1ccc([C@H]2CC3CCC(S3)C2c2cc(-c3ccccc3)no2)cc1 (stereo partly specified) | 49 nM
Cc1cc([C@@H]2C3CCC(C[C@@H]2c2ccc(Br)cc2)S3)on1 (stereo partly specified) | 14 nM

Could you tell me which IC50 is on file for Cc1cc([C@@H]2C3CCC(C[C@H]2c2ccc(Br)cc2)S3)on1 (stereo partly specified) ?
46.6 nM

Another: Cc1cc(C2=C(c3ccc(Cl)c(Cl)c3)CC3CCC2S3)on1 (stereo unspecified)
69.2 nM

---

Recorded IC50 by entry
Target desc: Sodium-dependent serotonin transporter (Homo sapiens, UniProt P31645)
Protocol: Displacement of [3H]citalopram from human SERT expressed in HEK293 cell membrane

Cc1cc(C2=C(c3ccccc3)CC3CCC2S3)on1 (centres undefined) | > 10 µM
c1ccc(-c2cc(C3C4CCC(C[C@H]3c3ccccc3)S4)on2)cc1 (some centres undefined) | > 10 µM
Cc1cc([C@@H]2C3CCC(C[C@H]2c2ccc(Br)cc2)S3)on1 (some centres undefined) | > 4 µM
Brc1ccc([C@@H]2CC3CCC(S3)C2c2cc(-c3ccccc3)no2)cc1 (some centres undefined) | > 10 µM
Cc1cc([C@@H]2C3CCC(C[C@H]2c2ccc(Cl)c(Cl)c2)S3)on1 (some centres undefined) | > 2 µM

Could you now look at the following compound, please?
Give Sodium-dependent serotonin transporter (Homo sapiens, UniProt P31645) IC50 for Cc1cc([C@@H]2C3CCC(C[C@@H]2c2ccc(Br)cc2)S3)on1 (some centres undefined)
0.755 µM

---

Target desc: UniProt:Q01959
Recorded IC50 by entry

Reference set, count: 4
Fc1ccc(C2=C(c3cc(-c4ccccc4)no3)C3CCC(C2)S3)cc1 (stereo not given) | > 2 µM
c1ccc(-c2cc(C3C4CCC(C[C@H]3c3ccccc3)S4)on2)cc1 (stereo not given in full) | > 1 µM
c1ccc(C2=C(c3cc(-c4ccccc4)no3)C3CCC(C2)S3)cc1 (stereo not given) | > 5 µM
Cc1cc(C2=C(c3ccccc3)CC3CCC2S3)on1 (stereo not given) | > 2 µM

Could you now look at the following compound, please?
Could you tell me which IC50 is on file for Cc1cc(C2=C(c3ccc(F)cc3)CC3CCC2S3)on1 (stereo not given) ?
> 1 µM
